Reported self-splicing fitness (ln) by item:
test_method_notes: self-splicing fitness, log relative to wild type (ln ratio); higher = more splicing; Tetrahymena group I intron in knt gene, E. coli kanamycin selection, DiMSum; sequences stand for … in CUCUCU…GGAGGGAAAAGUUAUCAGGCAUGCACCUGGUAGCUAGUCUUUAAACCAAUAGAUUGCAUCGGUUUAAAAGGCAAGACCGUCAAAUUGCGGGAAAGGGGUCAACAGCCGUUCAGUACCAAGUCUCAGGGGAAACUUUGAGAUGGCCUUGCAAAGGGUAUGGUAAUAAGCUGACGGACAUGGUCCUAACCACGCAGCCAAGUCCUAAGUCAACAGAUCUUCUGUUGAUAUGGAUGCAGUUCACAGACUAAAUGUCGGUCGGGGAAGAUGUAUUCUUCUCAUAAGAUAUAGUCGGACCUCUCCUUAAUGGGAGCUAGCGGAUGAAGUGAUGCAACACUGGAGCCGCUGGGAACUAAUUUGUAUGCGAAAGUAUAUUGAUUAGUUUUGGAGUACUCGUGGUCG;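 note: selection with 25 µg/mL kanamycin versus none on LB agar overnight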
condition_info: 37 °C
Lab note: write the figure by itself, no unit.

Solved cases (8 shown):
1) CAUCAGCAAUAUUACGUCUC : -1.75
2) GGUCAGCAAUAUUACGAUUU : 0.21
3) UCUAAGCAAUAUUACGUCAA : -1.77
4) GAUGAGCAAUAUUACGGACC : -0.541
5) UAUUAGCAAUAUUACGUAAC : -1.09
6) CUGUAGCAAUAUUACGCCGG : -0.642
7) ACUCAGCAAUAUUACGAGAC : -1.87
8) CUCUAGCAAUAUUACGCUCU : -3.77

Given the sequence `CCAGAGCAAUAUUACGGAGG` , write its reported self-splicing fitness (ln).
-1.87

Quote self-splicing fitness (ln) reported for `AAAUAGCAAUAUUACGCUCC` please.
0.174

// Input: `CGGCAGCAAUAUUACGUUUC` . Output its self-splicing fitness (ln) only.
-2.36
